- System: RXF 393
- Protocol Summary: NCI tumour cell line growth inhibition, 48 h
The source made the active and inactive calls. Rule as the data show it: active = GI50 up to about 1.1 µM and inactive = higher.
Endpoint Name: GI50

COc1ccc(Oc2cccc(C3C4C(=O)N(c5ccc(C)c(Cl)c5)C(=O)C4ON3C(C(N)=O)c3ccccc3)c2)cc1 (centres undefined) = 7.6 µM (inactive)
O=C(O)C(=Cc1ccnc2ccccc12)C(=O)O = > 100 µM (inactive)
COc1cc(C2SCC(=O)N2c2ccc(Cl)cc2)cc(OC)c1OC (centres undefined) = 19.1 µM (inactive)
Clc1nc2n(c1/C=C/c1cccs1)CCS2 = 40.8 µM (inactive)
COc1ccc(Nc2nc3cc(C(F)(F)F)ccc3nc2-c2ccccc2)cc1OC = 11.9 µM (inactive)
O=C(CCCCCCCCC(=O)OCCCn1cc(C(=O)NC(=O)OCc2ccccc2)c(=O)[nH]c1=O)OCCCn1cc(C(=O)NC(=O)OCc2ccccc2)c(=O)[nH]c1=O = > 100 µM (inactive)
COc1ccc2c(n1)Sc1nc3ccccc3nc1N2 = 32.2 µM (inactive)
CC(C)(C)[Si](C)(C)Oc1ccc(C2CNC(=O)C23CCC(=O)N3Cc2ccccc2)cc1 (centres undefined) = 10.7 µM (inactive)
C[C@]12CC[C@H]3[C@@H](CCC4=CC(=O)C=C[C@@]43O)[C@@H]1CCC2=O = > 100 µM (inactive)

This collection of values is drawn from ChEMBL document CHEMBL1201862.
